TEST_SYSTEM: Cannabinoid receptor 2 (Homo sapiens)
Sequence (P34972 whole entry): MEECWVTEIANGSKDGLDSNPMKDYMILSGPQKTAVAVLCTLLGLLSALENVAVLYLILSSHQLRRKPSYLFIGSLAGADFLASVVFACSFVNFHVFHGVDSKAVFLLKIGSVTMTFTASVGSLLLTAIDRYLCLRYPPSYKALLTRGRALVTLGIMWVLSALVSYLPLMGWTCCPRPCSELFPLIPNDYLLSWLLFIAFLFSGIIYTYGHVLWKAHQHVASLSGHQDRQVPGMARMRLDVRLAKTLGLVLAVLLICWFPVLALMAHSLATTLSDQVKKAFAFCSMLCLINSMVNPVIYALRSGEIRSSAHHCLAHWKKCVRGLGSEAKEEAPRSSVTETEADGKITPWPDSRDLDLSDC
EXPERIMENT_NOTES: Agonist activity at human CB2 receptor expressed in CHO cells assessed as forskolin-stimulated [3H]cyclic-AMP accumulation by scintillation counting analysis
Assay type: functional, cell-based
pEC50: −log10 of the molar value.
Please use T whenever pEC50 is not below 7, and F whenever it is.

>  <COMPOUND>
CCCCCn1cc(C(=O)NC2CCCCC2)c(=O)c2c(C)nn(C)c21

>  <TEST_SYSTEM>
Cannabinoid receptor 2 (Homo sapiens)

>  <LABEL_CLASS>
F

$$$$

Dear colleague, could you confirm whether CCCCCn1cc(C(=O)Nc2ccccc2)c(=O)c2c(C)nn(C)c21 has pEC50 at or above 7?
F

Dear colleague, could you confirm whether CCCCCn1cc(C(=O)NC23CC4CC(CC(C4)C2)C3)c(=O)c2cnn(C)c21 has pEC50 at or above 7?
T

Dear colleague, could you confirm whether CCCCCn1cc(C(=O)NC23CC4CC(CC(C4)C2)C3)c(=O)c2c(C)c(C)sc21 has pEC50 at or above 7?
T

Dear colleague, could you confirm whether CCCCCn1cc(C(=O)N[C@H]2CC[C@@H](C)CC2)c(=O)c2c(C)nn(C)c21 has pEC50 at or above 7?
T

Dear colleague, could you confirm whether CCCCn1cc(C(=O)NC2CCCCC2)c(=O)c2c(C)nn(C)c21 has pEC50 at or above 7?
F

* * *

Property: inhibition; scope: individual compounds
TEST_SYSTEM: Cannabinoid receptor 1 (Rattus norvegicus)
EXPERIMENT_NOTES: Displacement of [3H]CP-55,940 from Sprague-Dawley rat brain CB1 receptor at 1 to 10000 nM by scintillation counting analysis

>  <CHEMICAL_STRING>
CCCCCn1cc(C(=O)NC2CCCCC2)c(=O)c2c(C(C)(C)C)nn(C)c21

>  <EXPERIMENTAL_RESULT>
19%

$$$$
>  <CHEMICAL_STRING>
CCCCCn1cc(C(=O)NCc2ccccc2)c(=O)c2c(C)nn(C)c21

>  <EXPERIMENTAL_RESULT>
42%

$$$$

Please state recorded inhibition (tested on Cannabinoid receptor 1 (Rattus norvegicus)) of CCCCCn1cc(C(=O)NC2CCCCCC2)c(=O)c2c(-c3ccc(Cl)cc3)nn(C)c21
12%

* * *

Property: Ki; scope: individual compounds
TEST_SYSTEM: Cannabinoid receptor 1 (Rattus norvegicus, UniProt P20272)
Sequence (P20272 whole entry): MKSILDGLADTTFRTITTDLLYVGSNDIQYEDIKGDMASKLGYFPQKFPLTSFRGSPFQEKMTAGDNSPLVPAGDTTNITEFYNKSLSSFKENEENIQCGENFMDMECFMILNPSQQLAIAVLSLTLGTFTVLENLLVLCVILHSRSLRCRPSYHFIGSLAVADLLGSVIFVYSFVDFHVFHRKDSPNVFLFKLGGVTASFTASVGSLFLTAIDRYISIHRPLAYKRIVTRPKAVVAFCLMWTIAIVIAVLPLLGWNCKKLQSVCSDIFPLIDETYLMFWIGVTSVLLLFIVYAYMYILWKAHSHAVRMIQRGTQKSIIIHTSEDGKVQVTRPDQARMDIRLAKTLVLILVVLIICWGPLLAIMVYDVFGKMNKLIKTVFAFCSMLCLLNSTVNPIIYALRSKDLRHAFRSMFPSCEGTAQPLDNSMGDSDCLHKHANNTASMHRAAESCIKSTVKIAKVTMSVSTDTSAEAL
Give just the number in nM; leave the unit off.

Would you please look over these solved cases?
>  <COMPOUND>
CCCCCn1cc(C(=O)NC23CC4CC(CC(C4)C2)C3)c(=O)c2c(C)csc21

>  <Ki, nM>
16.5

$$$$
>  <COMPOUND>
CCCn1cc(C(=O)NC2CCCCC2)c(=O)c2c(C)nn(C)c21

>  <Ki, nM>
832

$$$$
>  <COMPOUND>
CCCCCn1cc(C(=O)NC2CCCCCC2)c(=O)c2cnn(C)c21

>  <Ki, nM>
5200

$$$$
>  <COMPOUND>
CCCCCn1cc(C(=O)NC23CC4CC(CC(C4)C2)C3)c(=O)c2c(C)c(C)sc21

>  <Ki, nM>
52

$$$$
>  <COMPOUND>
CCCCCn1cc(C(=O)NC(C)CCC(C)C)c(=O)c2c(C)nn(C)c21 (stereo unspecified)

>  <Ki, nM>
2260

$$$$
>  <COMPOUND>
CCCCCn1cc(C(=O)Nc2ccccc2)c(=O)c2c(C)nn(C)c21

>  <Ki, nM>
1020

$$$$
>  <COMPOUND>
CCCCCn1cc(C(=O)NC2CCCCC2)c(=O)c2c(C)nn(C)c21

>  <Ki, nM>
1420

$$$$
>  <COMPOUND>
CCCCCn1cc(C(=O)NC23CC4CC(CC(C4)C2)C3)c(=O)c2cnn(C)c21

>  <Ki, nM>
5340

$$$$

Please state recorded Ki (tested on Cannabinoid receptor 1 (Rattus norvegicus, UniProt P20272)) of CCCCCn1cc(C(=O)N[C@H]2CC[C@H](C)CC2)c(=O)c2c(C)nn(C)c21
4800

Please state recorded Ki (tested on Cannabinoid receptor 1 (Rattus norvegicus, UniProt P20272)) of CCCCCn1cc(C(=O)NC2CCCCC2)c(=O)c2c(CC)nn(C)c21
1120

Please state recorded Ki (tested on Cannabinoid receptor 1 (Rattus norvegicus, UniProt P20272)) of CCCCCn1cc(C(=O)NC2CCCCCC2)c(=O)c2c(C)noc21
184

Please state recorded Ki (tested on Cannabinoid receptor 1 (Rattus norvegicus, UniProt P20272)) of CCCCCn1cc(C(=O)NC2CCCCC2)c(=O)c2c(C)csc21
98
